The reported measurements were obtained from patent US8290713.

Target: α-synuclein (UniProt P37840 1-140); further: test concentration or dose not given here
Experiment: cell-based or functional assay
Non-standard residues stand in square brackets, D forms with d.
% decrease in rate of aggregation listing for selected binders.

{"binder": "Ac-[dH][dH][dT][dE][dV][dY]-NH2 (SMILES CC(=O)N[C@H](Cc1c[nH]cn1)C(=O)N[C@H](Cc1c[nH]cn1)C(=O)N[C@@H](C(=O)N[C@H](CCC(=O)O)C(=O)N[C@@H](C(=O)N[C@H](Cc1ccc(O)cc1)C(N)=O)C(C)C)[C@H](C)O) [ZP-0193]", "recordedResult": "-15.8%"}
{"binder": "Ac-[dH][dH][dT][dV][dV][dA]-NH2 (SMILES CC(=O)N[C@H](Cc1c[nH]cn1)C(=O)N[C@H](Cc1c[nH]cn1)C(=O)N[C@@H](C(=O)N[C@@H](C(=O)N[C@@H](C(=O)N[C@H](C)C(N)=O)C(C)C)C(C)C)[C@H](C)O) [ZP-0180]", "recordedResult": "18.4%"}

Identify measured % decrease in rate of aggregation associated with H-[dQ][dY][dS][dV][dL][dV]-NH2 (SMILES CC(C)C[C@@H](NC(=O)[C@H](NC(=O)[C@@H](CO)NC(=O)[C@@H](Cc1ccc(O)cc1)NC(=O)[C@H](N)CCC(N)=O)C(C)C)C(=O)N[C@@H](C(N)=O)C(C)C) [ZP-0229]
24.3%
